Study the reported pIC50 values for UniProt:Q9UHL4 given below; they originate from different publications.
Lab note — pIC50 values are minus log10 of concentrations in M.

IN: Give pIC50 for this entry on UniProt:Q9UHL4: `C[C@H]1c2nc(C(F)(F)F)nn2CCN1C(=O)C[C@H](N)Cc1cc(F)c(F)cc1F`
OUT: 4.14

IN: Give pIC50 for this entry on UniProt:Q9UHL4: `N[C@@H](CCCNC(=O)OCc1ccccc1)C(=O)N1CCCC1`
OUT: 5.43

IN: Give pIC50 for this entry on UniProt:Q9UHL4: `N[C@H]1CN(c2ccc3nnc(-c4ccc(F)cc4)n3n2)CC[C@@H]1c1cc(F)c(F)cc1F`
OUT: 4.82

IN: Give pIC50 for this entry on UniProt:Q9UHL4: `N[C@H](C(=O)N1CCSC1)[C@H]1CC[C@H](NS(=O)(=O)c2ccc(F)c(F)c2F)CC1`
OUT: 6.02

IN: Give pIC50 for this entry on UniProt:Q9UHL4: CS(=O)(=O)Nc1cccc(NC(=O)CN2CCN(C(=O)C[C@H](N)Cc3ccc(F)c(F)c3)C(Cc3ccccc3)C2)c1 (stereo not given in full)
OUT: 6.35

IN: Give pIC50 for this entry on UniProt:Q9UHL4: `N[C@@H](CC(=O)N1CCSC1)Cc1ccc(Cl)cc1`
OUT: 4.44

IN: Give pIC50 for this entry on UniProt:Q9UHL4: `N[C@H]1C[C@@H](N2Cc3ccccc3C2)CC[C@@H]1c1cc(F)c(F)cc1F`
OUT: 4.17

----------
Study the reported pIC50 values for Dipeptidyl peptidase 2 (Homo sapiens) given below; they originate from different publications.
Lab note — pIC50 values are minus log10 of concentrations in M.

IN: Give pIC50 for this entry on Dipeptidyl peptidase 2 (Homo sapiens): `O=C(CNCc1ccccc1)N1CCCC1`
OUT: 3.30

IN: Give pIC50 for this entry on Dipeptidyl peptidase 2 (Homo sapiens): `N[C@H](C(=O)N1CCCC1)[C@@H]1CC[C@@H](NS(=O)(=O)c2ccc(S(N)(=O)=O)cc2)C1`
OUT: 5.64

IN: Give pIC50 for this entry on Dipeptidyl peptidase 2 (Homo sapiens): `N#Cc1cc(F)cc(N2C[C@@H]3[C@H](C2)[C@H]3NCC(=O)N2C[C@@H](F)C[C@H]2C#N)c1`
OUT: 5.74

IN: Give pIC50 for this entry on Dipeptidyl peptidase 2 (Homo sapiens): `Cc1noc(C)c1S(=O)(=O)N(CCCC(F)(F)F)[C@H]1CC[C@H]([C@H](N)Cc2cc(F)ccc2F)CC1`
OUT: 4.40

IN: Give pIC50 for this entry on Dipeptidyl peptidase 2 (Homo sapiens): `N[C@@H](CCNCc1ccc(Cl)cc1)C(=O)N1CCC(O)CC1`
OUT: 6.95

----------
Study the reported log10(IC50) values for Dipeptidyl peptidase 2 (Homo sapiens, UniProt Q9UHL4) given below; they originate from different publications.
Heads up, the numbers here are log10 of IC50 in µM units.

IN: Give log10(IC50) for this entry on Dipeptidyl peptidase 2 (Homo sapiens, UniProt Q9UHL4): `N#C[C@@H]1C[C@H](N=[N+]=[N-])CN1C(=O)[C@@H](N)CCCCNc1ccc2ccccc2c1`
OUT: -1.47

IN: Give log10(IC50) for this entry on Dipeptidyl peptidase 2 (Homo sapiens, UniProt Q9UHL4): `N#Cc1c(F)cc(F)cc1N1C[C@@H]2[C@H](C1)[C@H]2NCC(=O)N1C[C@@H](F)C[C@H]1C#N`
OUT: 0.59

IN: Give log10(IC50) for this entry on Dipeptidyl peptidase 2 (Homo sapiens, UniProt Q9UHL4): `COc1ccccc1CNCC[C@H](N)C(=O)N1CCCCC1`
OUT: -0.73

IN: Give log10(IC50) for this entry on Dipeptidyl peptidase 2 (Homo sapiens, UniProt Q9UHL4): `CN(C)C(=O)[C@@H](c1ccc(-c2ccn3nccc3n2)cc1)[C@H](N)C(=O)N1CCC(F)(F)C1.O=C(O)C(F)(F)F`
OUT: 1.26

IN: Give log10(IC50) for this entry on Dipeptidyl peptidase 2 (Homo sapiens, UniProt Q9UHL4): `CN(C)C(=O)Nc1ccc(S(=O)(=O)N[C@H]2CC[C@H]([C@H](N)C(=O)N3CCCC3)CC2)cc1`
OUT: 1.08
